src = ChEMBL document CHEMBL4477270

# Target under test: Protein arginine N-methyltransferase 5 (Homo sapiens)
# Test protocol: Inhibition of PRMT5 (unknown origin) using biotin-labeled histone substrate assessed as residual activity at 50 uM in presence of [3H-Me]SAM by scintillation proximity assay relative to control
Recorded metric: Activity (%)
Write the answer as a number in %, unit excluded.

stdin: Observed Activity on Protein arginine N-methyltransferase 5 (Homo sapiens) for CN1CCC2(CCCN(C(=O)c3cccc(Br)c3)C2)C1 (centres undefined) , please.
stdout: 95

stdin: Next molecule: `CN1CCCC12CCN(C(=O)c1cccc(Br)c1)CC2`
stdout: 108

stdin: Next molecule: O=C(c1cccc(Br)c1)N1CCCC2(CCCCN2)C1 (centres undefined)
stdout: 103

stdin: Next molecule: `O=C(c1cccc(Br)c1)N1CCC[C@@H]2CNC[C@@H]21`
stdout: 109

stdin: Next molecule: O=C(c1cccc(Br)c1)N1CCC2CNCC2C1 (centres undefined)
stdout: 105

stdin: Next molecule: O=C(c1cccc(Br)c1)N1C[C@@H]2CC3CCCCN3[C@@H]2C1 (some centres undefined)
stdout: 93

stdin: Next molecule: `CN1CC[C@H]2CN(C(=O)c3cccc(Br)c3)C[C@H]21`
stdout: 113

stdin: Next molecule: `O=C(c1cccc(Br)c1)N1C[C@@H]2CCN[C@@H]2C1`
stdout: 114

stdin: Next molecule: `CN1C[C@H]2CCCN(C(=O)c3cccc(Br)c3)[C@H]2C1`
stdout: 108

stdin: Next molecule: CN1CCCC2(CCCN(C(=O)c3cccc(Br)c3)C2)C1 (centres undefined)
stdout: 102

stdin: Next molecule: O=C(c1cccc(Br)c1)N1C[C@@H]2CC3CCCN3[C@@H]2C1 (some centres undefined)
stdout: 96

stdin: Next molecule: CN1CCCC12CCCN(C(=O)c1cccc(Br)c1)C2 (centres undefined)
stdout: 97

stdin: Next molecule: `O=C(c1cccc(Br)c1)N1CCC2(CCNCC2)CC1`
stdout: 110

stdin: Next molecule: `CN1CCC2(CCCN2C(=O)c2cccc(Br)c2)CC1`
stdout: 98

stdin: Next molecule: `O=C(c1cccc(Br)c1)N1C[C@H]2CCCN[C@H]2C1`
stdout: 117

stdin: Next molecule: CN1CCCC2(CCCN2C(=O)c2cccc(Br)c2)C1 (centres undefined)
stdout: 96

stdin: Next molecule: `O=C(c1cccc(Br)c1)N1CCCC2(CCNCC2)C1`
stdout: 117

stdin: Next molecule: `CN1CCCCC12CCN(C(=O)c1cccc(Br)c1)CC2`
stdout: 104

stdin: Next molecule: `O=C(c1cccc(Br)c1)N1CC[C@H]2NCC[C@H]2C1`
stdout: 114

stdin: Next molecule: `CN1CCC[C@@H]2CN(C(=O)c3cccc(Br)c3)C[C@@H]21`
stdout: 107

stdin: Next molecule: CN1CCCCC12CCCN(C(=O)c1cccc(Br)c1)C2 (centres undefined)
stdout: 107

stdin: Next molecule: O=C(c1cccc(Br)c1)N1CC[C@@H]2[C@@H](CC3CCCCN32)C1 (some centres undefined)
stdout: 104

stdin: Next molecule: `C[N+]1(C)CCCCC12CCN(C(=O)c1cccc(Br)c1)CC2`
stdout: 103

stdin: Next molecule: `CN1CCC2(CC1)CCN(C(=O)c1cccc(Br)c1)CC2`
stdout: 105
